Tested on: human PKK mRNA
Assay: Antisense inhibition of human PKK mRNA in HepaRG cells, 3,000 nM (Example 1)
Assay type: cell-based
Conditions: Table 4; HepaRG cells, electroporation with 3,000 nM antisense oligonucleotide, approx. 24 hours; PKK mRNA by RT-PCR (RTS3454), relative to untreated control cells
Strand notation (5' to 3'): a small letter for the sugar, then the base; units joined by * are phosphorothioate-linked, units joined directly phosphodiester-linked; [ ] holds rarer units or linkages, { } end groups; capitals alone tell only the bases. e = 2'-O-(2-methoxyethyl) (MOE); [5mC] = 5-methylcytosine; d = 2'-deoxy (DNA)
I'd be grateful if you could share measured % inhibition for these entries.
Numbers only, in %.

{"columns": ["SUBSTANCE", "EXPERIMENTAL_READOUT", "UNIT_STRING", "READOUT_NUMBER"],
 "data": [
  ["531198 (eG*eG*eG*eA*eT*dT*dT*dT*dG*d[5mC]*dT*dG*dA*dA*dG*e[5mC]*eT*eG*eG*eT; antisense) [compound 531198]", "% inhibition", "%", 73],
  ["531164 (antisense eT*eT*eA*eA*eA*dT*dA*dT*dA*dA*dA*dG*dA*dG*dA*eT*e[5mC]*e[5mC]*eT*e[5mC]) [compound 531164]", "% inhibition", "%", 38],
  ["531195 (eA*eT*eA*eA*eA*dA*dT*dA*dT*dA*dT*dT*dA*dA*dG*eG*e[5mC]*eA*eA*e[5mC]; antisense) [compound 531195]", "% inhibition", "%", 61],
  ["531168 (antisense eA*e[5mC]*e[5mC]*e[5mC]*e[5mC]*dA*dA*d[5mC]*dA*dG*dA*d[5mC]*dA*dG*d[5mC]*e[5mC]*e[5mC]*eA*e[5mC]*e[5mC]) [compound 531168]", "% inhibition", "%", 55]
]}

# next substance below
*Q* # % inhibition lookup, item 531171 (antisense eA*eG*eG*e[5mC]*e[5mC]*dT*dG*d[5mC]*d[5mC]*dA*d[5mC]*dA*dG*dG*d[5mC]*e[5mC]*eA*eG*eA*e[5mC]) [compound 531171]
*A* 40

----------
I'd be grateful if you could share measured % inhibition for these entries.
System: human PKK mRNA
Assay: Antisense inhibition of human PKK mRNA in HepaRG cells, 1,000 nM, MOE/deoxy/cEt oligonucleotides (Example 3)
Format: cell-based
Settings: HepaRG cells, electroporation with 1,000 nM antisense oligonucleotide, approx. 24 hours, PKK mRNA by RT-PCR (RTS3454), relative to untreated control cells; Table 25 experiment
Strand notation (5' to 3'): a small letter for the sugar, then the base; units joined by * are phosphorothioate-linked, units joined directly phosphodiester-linked; [ ] holds rarer units or linkages, { } end groups; capitals alone tell only the bases. e = 2'-O-(2-methoxyethyl) (MOE); k = constrained ethyl (cEt); [5mC] = 5-methylcytosine; d = 2'-deoxy (DNA)
Give bare numbers, in %.

Look over these answered cases.
{"columns": ["SUBSTANCE", "% inhibition [%]"],
 "data": [
  ["548178 (eG*eA*kG*dA*dT*d[5mC]*dT*d[5mC]*dA*dG*dT*dT*dG*k[5mC]*kG*eA; antisense) [compound 548178]", 54],
  ["548208 (e[5mC]*eT*k[5mC]*dT*dG*dG*dT*d[5mC]*dA*dA*dT*d[5mC]*dT*kG*kA*e[5mC]; antisense) [compound 548208]", 19],
  ["548197 (eT*eG*k[5mC]*dT*dT*dG*dG*d[5mC]*dT*dT*d[5mC]*dA*dA*kT*kA*eT; antisense) [compound 548197]", 68],
  ["548166 (eG*e[5mC]*kG*dA*d[5mC]*d[5mC]*dT*d[5mC]*dG*d[5mC]*dA*dT*dT*kG*kT*e[5mC]; antisense) [compound 548166]", 0],
  ["548191 (eG*eT*k[5mC]*dA*dA*d[5mC]*dA*dT*dA*dT*dT*d[5mC]*d[5mC]*kA*kT*eG; antisense) [compound 548191]", 0],
  ["548195 (eT*eT*k[5mC]*dT*dG*d[5mC]*d[5mC]*dA*dA*d[5mC]*dA*dG*dT*kT*kT*e[5mC]; antisense) [compound 548195]", 84]
]}

Take each entry in turn and give its % inhibition.
1. 548179 (eG*eG*kA*dG*dA*dT*d[5mC]*dT*d[5mC]*dA*dG*dT*dT*kG*k[5mC]*eG; antisense) [compound 548179]
2. 548183 (e[5mC]*eA*kG*dT*d[5mC]*dA*dT*dG*dG*dA*dG*dA*dT*k[5mC]*kT*e[5mC]; antisense) [compound 548183]

*A*
1: 52; 2: 43

Take each entry in turn and give its % inhibition.
1. 548168 (eT*eT*kG*d[5mC]*dG*dA*d[5mC]*d[5mC]*dT*d[5mC]*dG*d[5mC]*dA*kT*kT*eG; antisense) [compound 548168]
2. 548203 (eT*eG*kA*d[5mC]*dT*dA*dG*dT*dG*dA*dA*dT*dG*kG*k[5mC]*eT; antisense) [compound 548203]

*A*
[61, 73]

Take each entry in turn and give its % inhibition.
1. 548211 (eA*e[5mC]*k[5mC]*dA*dA*d[5mC]*dA*dA*dT*d[5mC]*dT*d[5mC]*dT*kG*kG*eT; antisense) [compound 548211]
2. 548219 (eG*eA*kA*dA*dT*d[5mC]*d[5mC]*dT*dG*dT*dG*d[5mC]*dA*kT*kA*eG; antisense) [compound 548219]
3. 548163 (eA*e[5mC]*k[5mC]*dT*d[5mC]*dG*d[5mC]*dA*dT*dT*dG*dT*d[5mC]*kA*kG*e[5mC]; antisense) [compound 548163]
4. 548215 (eG*e[5mC]*kA*dT*dA*dG*dA*d[5mC]*d[5mC]*d[5mC]*d[5mC]*dA*dA*k[5mC]*kA*eG; antisense) [compound 548215]
5. 548217 (e[5mC]*eT*kG*dT*dG*d[5mC]*dA*dT*dA*dG*dA*d[5mC]*d[5mC]*k[5mC]*k[5mC]*eA; antisense) [compound 548217]
6. 548175 (eA*eT*k[5mC]*dT*d[5mC]*dA*dG*dT*dT*dG*d[5mC]*dG*dA*k[5mC]*k[5mC]*eT; antisense) [compound 548175]

*A*
1: 51; 2: 8; 3: 46; 4: 61; 5: 69; 6: 0

----------
Tested on: human PKK mRNA
Assay: Dose-dependent antisense inhibition of human PKK in HepaRG cells, 0.12-10.00 uM (Example 4)
Format: cell-based
Conditions: Table 33, 0.12 μM, electroporation, ~16 h
Strand notation (5' to 3'): a small letter for the sugar, then the base; units joined by * are phosphorothioate-linked, units joined directly phosphodiester-linked; [ ] holds rarer units or linkages, { } end groups; capitals alone tell only the bases. e = 2'-O-(2-methoxyethyl) (MOE); [5mC] = 5-methylcytosine; d = 2'-deoxy (DNA)
I'd be grateful if you could share measured percent inhibition of PKK at 0.12 μM for these entries.
Include the unit after the number when you answer.

Look over these answered cases.
{"columns": ["SUBSTANCE", "percent inhibition of PKK at 0.12 μM"],
 "data": [
  ["531110 (antisense eG*e[5mC]*e[5mC]*eT*eG*dT*dT*dT*dG*dG*dT*dG*dG*dT*d[5mC]*eT*e[5mC]*eT*eT*e[5mC]) [compound 531110]", "14%"],
  ["531121 (antisense eT*eT*eG*eG*eT*d[5mC]*dT*dA*d[5mC]*dA*dG*dA*dT*dT*d[5mC]*eA*eA*eT*eG*e[5mC]) [compound 531121]", "0%"],
  ["531123 (antisense eT*e[5mC]*e[5mC]*e[5mC]*eA*dG*d[5mC]*dT*d[5mC]*d[5mC]*dA*dG*dT*d[5mC]*dA*e[5mC]*e[5mC]*eA*e[5mC]*e[5mC]) [compound 531123]", "14%"],
  ["531055 (antisense e[5mC]*e[5mC]*e[5mC]*eT*eT*d[5mC]*dT*dT*dT*dA*dT*dA*dG*d[5mC]*d[5mC]*eA*eG*e[5mC]*eA*e[5mC]) [compound 531055]", "3%"]
]}

Take each entry in turn and give its percent inhibition of PKK at 0.12 μM.
1. 531232 (e[5mC]*eT*eG*eT*eA*d[5mC]*dT*dA*dG*dT*dT*dT*d[5mC]*d[5mC]*dT*eA*eT*eA*eA*e[5mC]; antisense) [compound 531232]
2. 531172 (antisense eT*eT*e[5mC]*eA*eA*dG*d[5mC]*d[5mC]*dT*dG*dG*dG*d[5mC]*dA*dG*e[5mC]*eA*e[5mC]*eA*eG) [compound 531172]
3. 531071 (e[5mC]*eT*eG*e[5mC]*eT*d[5mC]*dT*dG*dT*dG*dT*dT*dT*dT*d[5mC]*eT*e[5mC]*eT*eA*eA; antisense) [compound 531071]
4. 531198 (eG*eG*eG*eA*eT*dT*dT*dT*dG*d[5mC]*dT*dG*dA*dA*dG*e[5mC]*eT*eG*eG*eT; antisense) [compound 531198]

*A*
1. 15%
2. 0%
3. 23%
4. 0%

Take each entry in turn and give its percent inhibition of PKK at 0.12 μM.
1. 531069 (e[5mC]*e[5mC]*eA*eG*eT*d[5mC]*d[5mC]*dA*dT*dG*dT*dA*d[5mC]*dT*d[5mC]*eA*eG*e[5mC]*eG*eA; antisense) [compound 531069]
2. 531026 (antisense eA*eT*e[5mC]*eA*eT*dG*dA*dT*dT*d[5mC]*d[5mC]*d[5mC]*dT*dT*d[5mC]*eT*eG*eA*eG*eA) [compound 531026]

*A*
1: 19%; 2: 23%

*Q* # percent inhibition of PKK at 0.12 μM lookup, item 531231 (eT*eA*eT*e[5mC]*eA*d[5mC]*dT*dG*dT*dA*d[5mC]*dT*dA*dG*dT*eT*eT*e[5mC]*e[5mC]*eT) [compound 531231]
*A* 18%
